Values from paper PMC3724861

For each entry below, report its binding signal (minimum E-score of the two 8-mers) value.
- Experimental target: Caup homeodomain (Drosophila melanogaster) (UniProt P54269)
- Sequence: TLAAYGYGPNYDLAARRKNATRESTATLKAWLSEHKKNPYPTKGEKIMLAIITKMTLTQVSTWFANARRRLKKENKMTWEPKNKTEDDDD
- Assay setup: PBM

The sequence listed as TACATGTCA (double strand) [9-mer TACATGTCA] has a reported binding signal (minimum E-score of the two 8-mers) of 0.461

The sequence listed as GACATGTAC (double strand) [9-mer GACATGTAC] has a reported binding signal (minimum E-score of the two 8-mers) of 0.477

The sequence listed as ACATGTACA (double strand) [9-mer ACATGTACA] has a reported binding signal (minimum E-score of the two 8-mers) of 0.469

The sequence listed as TACATGTAA (double strand) [9-mer TACATGTAA] has a reported binding signal (minimum E-score of the two 8-mers) of 0.468

The sequence listed as CTACATGTA (double strand) [9-mer CTACATGTA] has a reported binding signal (minimum E-score of the two 8-mers) of 0.476

The sequence listed as ATACATGTA (double strand) [9-mer ATACATGTA] has a reported binding signal (minimum E-score of the two 8-mers) of 0.469

The sequence listed as AACATGTAC (double strand) [9-mer AACATGTAC] has a reported binding signal (minimum E-score of the two 8-mers) of 0.48

The sequence listed as AACATGTAT (double strand) [9-mer AACATGTAT] has a reported binding signal (minimum E-score of the two 8-mers) of 0.469

The sequence listed as AACATGTAA (double strand) [9-mer AACATGTAA] has a reported binding signal (minimum E-score of the two 8-mers) of 0.468

----------
- Experimental target: Caup homeodomain (Drosophila melanogaster) (UniProt P54269)
- Sequence: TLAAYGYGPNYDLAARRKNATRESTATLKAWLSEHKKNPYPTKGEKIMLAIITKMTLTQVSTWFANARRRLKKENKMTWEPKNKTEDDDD
- Assay setup: PBM
For each entry below, report its binding signal (minimum E-score of the two 8-mers) value.

The sequence listed as ATGTACATG (double strand) [9-mer ATGTACATG] has a reported binding signal (minimum E-score of the two 8-mers) of 0.469

The sequence listed as GACATGTAA (double strand) [9-mer GACATGTAA] has a reported binding signal (minimum E-score of the two 8-mers) of 0.468

The sequence listed as CTACATGTC (double strand) [9-mer CTACATGTC] has a reported binding signal (minimum E-score of the two 8-mers) of 0.476

The sequence listed as AACATGTAG (double strand) [9-mer AACATGTAG] has a reported binding signal (minimum E-score of the two 8-mers) of 0.476

The sequence listed as ATACATGTC (double strand) [9-mer ATACATGTC] has a reported binding signal (minimum E-score of the two 8-mers) of 0.469

The sequence listed as GTACATGTA (double strand) [9-mer GTACATGTA] has a reported binding signal (minimum E-score of the two 8-mers) of 0.48
